# System: H9
# Procedure details: Cytotoxicity against human H9 cells after 3 days
# Assay type: cell-based
# Condition parameters: H9, 72 h
This listing pairs compounds with measured IC50.
The answer should read as a number with its unit following.

Look over these answered cases.
C=C(C)[C@@H]1CC[C@]2(C(=O)O)CC[C@]3(C)[C@H](CC[C@@H]4[C@@]5(C)CC[C@H](OC(=O)/C=C/C)C(C)(C)[C@@H]5CC[C@]43C)[C@@H]12 | 48 µM
C=C(C)[C@@H]1CC[C@]2(C(=O)O)CC[C@]3(C)[C@H](CC[C@@H]4[C@@]5(C)CC[C@H](OS(=O)(=O)O)C(C)(C)[C@@H]5CC[C@]43C)[C@@H]12 | 35 µM
C=C(C)[C@@H]1CC[C@]2(C(=O)OCC(=O)OC)CC[C@]3(C)[C@H](CC[C@@H]4[C@@]5(C)CC[C@H](O)C(C)(C)[C@@H]5CC[C@]43C)[C@@H]12 | 26 µM

*Q* Give a short answer stating reported IC50 for "C=C(C)[C@@H]1CC[C@]2(C(=O)O)CC[C@]3(C)[C@H](CC[C@@H]4[C@@]5(C)CC[C@H](OC(C)=O)C(C)(C)[C@@H]5CC[C@]43C)[C@@H]12" .
*A* 20 µM

*Q* Please give the documented IC50 of "C=C(C)[C@@H]1CC[C@]2(C(=O)O)CC[C@]3(C)[C@H](CC[C@@H]4[C@@]5(C)CC[C@H](OC(=O)CCC(=O)O)C(C)(C)[C@@H]5CC[C@]43C)[C@@H]12"
*A* 16 µM

*Q* Return reported IC50. Input compound: "C=C(C)[C@@H]1CC[C@]2(CO)CC[C@]3(C)[C@H](CC[C@@H]4[C@@]5(C)CC[C@H](O)C(C)(C)[C@@H]5CC[C@]43C)[C@@H]12"
*A* 45 µM

*Q* Please give the documented IC50 of "CC(=O)[C@@H]1CC[C@]2(C(=O)O)CC[C@]3(C)[C@H](CC[C@@H]4[C@@]5(C)CC[C@H](O)C(C)(C)[C@@H]5CC[C@]43C)[C@@H]12"
*A* 90 µM

*Q* State its IC50: "C=C(C)[C@@H]1CC[C@]2(C(=O)O)CC[C@]3(C)[C@H](CC[C@@H]4[C@@]5(C)CC[C@H](OC(=O)c6ccccc6)C(C)(C)[C@@H]5CC[C@]43C)[C@@H]12"
*A* 15 µM

###

# Measured on: Protein kinase C beta type (Homo sapiens, UniProt P05771)
# Sequence (P05771 whole entry): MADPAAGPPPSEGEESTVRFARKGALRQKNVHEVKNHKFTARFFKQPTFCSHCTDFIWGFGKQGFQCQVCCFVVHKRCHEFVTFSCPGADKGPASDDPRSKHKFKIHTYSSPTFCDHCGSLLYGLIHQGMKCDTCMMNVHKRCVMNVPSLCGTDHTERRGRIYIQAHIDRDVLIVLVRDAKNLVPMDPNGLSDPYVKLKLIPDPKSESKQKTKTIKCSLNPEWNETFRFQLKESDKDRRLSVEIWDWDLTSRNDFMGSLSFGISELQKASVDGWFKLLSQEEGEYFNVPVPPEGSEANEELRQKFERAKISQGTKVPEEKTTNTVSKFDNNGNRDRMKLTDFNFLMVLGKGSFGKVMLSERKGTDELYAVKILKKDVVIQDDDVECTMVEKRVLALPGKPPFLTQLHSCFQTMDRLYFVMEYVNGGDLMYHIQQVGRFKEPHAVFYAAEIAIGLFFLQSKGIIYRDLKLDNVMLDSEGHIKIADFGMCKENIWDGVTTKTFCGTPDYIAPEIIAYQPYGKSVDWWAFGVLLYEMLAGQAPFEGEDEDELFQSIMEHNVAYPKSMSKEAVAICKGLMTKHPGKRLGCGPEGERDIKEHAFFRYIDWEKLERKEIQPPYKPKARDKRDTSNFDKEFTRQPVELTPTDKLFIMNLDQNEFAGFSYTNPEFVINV
pIC50: −log10 of the molar value.
Measured pIC50 by item

The cases that follow already have their pIC50 on record.
CC(C)[C@@H]1CC[C@]2(C(=O)O)CC[C@]3(C)C(CCC4[C@@]5(C)CC[C@H](O)C(C)(C)C5CC[C@]43C)C12 (stereo partly drawn) [DIHYDROBETULINIC ACID] | < 3.82
CC(=O)[C@@H]1CC[C@]2(C(=O)O)CC[C@]3(C)[C@H](CC[C@@H]4[C@@]5(C)CC[C@H](O)C(C)(C)[C@@H]5CC[C@]43C)[C@@H]12 [PLATANIC ACID] | < 3.82

Then this compound:
*Q* Look up and state reported pIC50 for C=C(C)[C@@H]1CC[C@]2(CO)CC[C@]3(C)[C@H](CC[C@@H]4[C@@]5(C)CC[C@H](O)C(C)(C)[C@@H]5CC[C@]43C)[C@@H]12 [BETULIN]
*A* < 3.82

Every entry's value here was drawn from ChEMBL document CHEMBL1149038.
